All values here come from patent US8815872B2.

Target: cKit(D816V)(h) (Homo sapiens, UniProt P10721, D816V)
Construct: purchased Caliper Life Sciences
Sequence (P10721 26-976 D816V): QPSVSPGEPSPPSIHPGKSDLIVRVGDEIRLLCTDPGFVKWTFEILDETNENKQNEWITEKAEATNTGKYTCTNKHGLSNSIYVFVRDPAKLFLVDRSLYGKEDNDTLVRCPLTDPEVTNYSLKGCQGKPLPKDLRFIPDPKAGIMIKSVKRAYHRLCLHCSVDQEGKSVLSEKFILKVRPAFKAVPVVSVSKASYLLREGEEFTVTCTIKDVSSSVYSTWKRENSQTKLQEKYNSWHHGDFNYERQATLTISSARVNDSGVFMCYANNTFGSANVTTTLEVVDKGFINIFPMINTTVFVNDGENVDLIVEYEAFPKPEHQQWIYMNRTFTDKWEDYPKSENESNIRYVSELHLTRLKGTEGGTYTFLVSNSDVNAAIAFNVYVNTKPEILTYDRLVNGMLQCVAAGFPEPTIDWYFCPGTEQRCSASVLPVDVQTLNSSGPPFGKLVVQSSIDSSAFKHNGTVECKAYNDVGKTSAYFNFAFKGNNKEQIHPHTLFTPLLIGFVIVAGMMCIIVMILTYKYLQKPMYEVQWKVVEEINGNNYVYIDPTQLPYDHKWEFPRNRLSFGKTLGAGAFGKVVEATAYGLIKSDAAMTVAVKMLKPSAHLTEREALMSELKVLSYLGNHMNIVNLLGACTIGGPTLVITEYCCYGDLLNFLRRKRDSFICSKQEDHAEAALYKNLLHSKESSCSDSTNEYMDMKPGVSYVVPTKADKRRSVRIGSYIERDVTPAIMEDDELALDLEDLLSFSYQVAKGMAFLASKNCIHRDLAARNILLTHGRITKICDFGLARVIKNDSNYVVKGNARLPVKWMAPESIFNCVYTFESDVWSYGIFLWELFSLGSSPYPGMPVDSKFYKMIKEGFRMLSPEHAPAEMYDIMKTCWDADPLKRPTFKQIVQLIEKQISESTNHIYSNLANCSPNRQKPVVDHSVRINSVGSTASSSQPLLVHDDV
Experiment: Other kinases, single-concentration inhibition (Table 3)
Format: biochemical
Conditions: 1 μM
Metric name: % inhibition cKit(D816V)(h) (%)

See these solved cases before continuing.
CC[C@@H]1C[C@@H]2CCCOc3cccc(c3)Nc3ncc(F)c(n3)N[C@H]2[C@H]1C(N)=O (single isomer, unassigned) [Example 5]; 103
NC(=O)[C@H]1[C@H]2C[C@H]3[C@H]1Nc1nc(ncc1F)Nc1cccc(c1)OCCS[C@@H]3C2 [Example 20]; 112
NC(=O)[C@H]1[C@H]2C[C@H]3[C@H]1Nc1nc(ncc1F)Nc1cccc(c1)NC(=O)CS[C@@H]3C2 [Example 27]; 95
N#Cc1ccc2cc1NC(=O)CS[C@@H]1C[C@@H]3C[C@H]1[C@@H](Nc1nc(ncc1F)N2)[C@H]3C(N)=O [Example 26]; 112

[I] CN1CCN(c2ccc3cc2OCCS[C@@H]2C[C@@H]4C[C@H]2[C@@H](Nc2nc(ncc2F)N3)[C@H]4C(N)=O)CC1 [Example 22]
[II] C=C[C@@H]1C[C@@H]2/C=C/COc3cccc(c3)Nc3ncc(F)c(n3)N[C@H]2[C@H]1C(N)=O (single isomer, unassigned) [Example 3]
Could you point out whether the larger % inhibition cKit(D816V)(h) belongs to I or to II ? State your choice using its label. I
